targetOfAssay: ACL (Homo sapiens (Human), UniProt P53396)
Sequence (P53396 other isoform, or with tags, fused parts or gaps isoform P53396-2): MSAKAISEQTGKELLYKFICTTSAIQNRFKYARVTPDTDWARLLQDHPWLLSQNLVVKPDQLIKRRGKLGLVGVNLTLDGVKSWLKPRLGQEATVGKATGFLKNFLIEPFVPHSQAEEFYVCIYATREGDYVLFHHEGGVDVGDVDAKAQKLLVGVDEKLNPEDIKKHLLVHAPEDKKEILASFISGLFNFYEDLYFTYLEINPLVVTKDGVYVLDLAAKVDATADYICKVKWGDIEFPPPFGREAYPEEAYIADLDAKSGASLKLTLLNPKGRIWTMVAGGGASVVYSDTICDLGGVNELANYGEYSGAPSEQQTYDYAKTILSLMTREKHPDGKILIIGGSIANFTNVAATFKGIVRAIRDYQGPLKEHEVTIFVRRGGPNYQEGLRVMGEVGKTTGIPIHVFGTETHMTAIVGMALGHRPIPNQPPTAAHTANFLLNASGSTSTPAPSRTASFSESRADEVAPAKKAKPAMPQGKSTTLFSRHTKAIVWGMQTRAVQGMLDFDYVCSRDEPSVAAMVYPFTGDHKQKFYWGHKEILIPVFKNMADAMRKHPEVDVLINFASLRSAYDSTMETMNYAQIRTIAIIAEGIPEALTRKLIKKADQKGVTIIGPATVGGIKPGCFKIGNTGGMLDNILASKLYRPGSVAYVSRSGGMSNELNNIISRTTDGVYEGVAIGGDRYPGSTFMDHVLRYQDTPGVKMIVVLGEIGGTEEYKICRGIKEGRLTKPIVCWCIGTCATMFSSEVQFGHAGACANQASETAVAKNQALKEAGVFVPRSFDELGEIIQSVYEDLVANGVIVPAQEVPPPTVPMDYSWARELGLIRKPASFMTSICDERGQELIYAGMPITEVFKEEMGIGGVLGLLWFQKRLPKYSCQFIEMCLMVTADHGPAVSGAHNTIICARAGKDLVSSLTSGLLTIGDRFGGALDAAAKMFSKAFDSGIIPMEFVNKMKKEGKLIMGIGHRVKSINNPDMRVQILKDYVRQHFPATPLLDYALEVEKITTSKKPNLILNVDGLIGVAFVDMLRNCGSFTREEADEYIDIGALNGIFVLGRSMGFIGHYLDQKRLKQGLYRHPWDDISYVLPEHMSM
procedureSummary: ADP-Glo Assay
experimentalReadout: IC50

{"columns": ["inputSmiles", "experimentalReadout", "result"],
 "data": [
  ["COc1ccc(-c2ccccc2)cc1NS(=O)(=O)c1cc(Cl)c(O)c(Br)c1", "IC50", "500 to 20000 nM"],
  ["COc1ccc(-c2cccnc2)cc1NS(=O)(=O)c1cc(C(=O)O)cc(Cl)c1O", "IC50", "> 20000 nM"],
  ["O=S(=O)(Nc1cc(-c2ccccc2)c(F)cc1F)c1cc(Cl)cc(C(F)(F)F)c1", "IC50", "500 to 20000 nM"],
  ["CC(C)C(=O)Oc1c(Cl)cc(-c2cncs2)cc1S(=O)(=O)Nc1cc(-c2ccccc2)c(F)cc1F", "IC50", "50 to 500 nM"],
  ["CN(c1cc(-c2ccccc2)c(F)cc1C(=O)O)S(=O)(=O)c1cc(Cl)cc(Cl)c1", "IC50", "500 to 20000 nM"],
  ["O=S(=O)(NC1(c2ccc(F)cc2)CC1)c1cc(Cl)cc(Cl)c1O", "IC50", "500 to 20000 nM"]
]}
